System: epithelial carcinoma A431 cell line
Assay: MTT Cell Proliferation Assay, A431 cells
Type: cell-based
Conditions: Homo sapiens, A-431, A431 cells, first value of cell; read-out: MTT Assay IC50(A431/MDBK): A431
Source text: The following example describes the MTT Cell Proliferation Assay. The MTT Cell Proliferation Assay is a colorimetric assay system that measures the reduction of the tetrazolium salt MTT (3-(4,5-dimethylthiazol-2-yl)-2,5-diphenyltetrazolium bromide) into insoluble formazan crystals, produced by the mitochondria of viable cells. […] The color can then be quantified by spectrophotometric means. […] Plates were read in a Tecan Sunrize UV plate reader, at 560 nm. […]
Where a name gives a salt, the structure may show the parent alone.
Measured attribute: IC50 (µM)

Please review the following examples before continuing.
Molecule: Cc1nc(Nc2ncc3c(n2)CC(c2ccco2)CC3=O)nc2ccccc12 (stereo not drawn) [11679 + TFA]
Measured attribute: IC50
Unit of measurement: µM
Experimental result: 12.6
--
Molecule: Cc1cc(C)c2nc(Nc3nc(=O)c(C)c(C)[nH]3)nc(C)c2c1 [12645 + TFA]
Measured attribute: IC50
Unit of measurement: µM
Experimental result: 6.49
--
Molecule: Cc1ccc2nc(Nc3nc(CSc4nc5ccccc5s4)cc(=O)[nH]3)nc(C)c2c1
Measured attribute: IC50
Unit of measurement: µM
Experimental result: 21.8
--
Molecule: CCCc1c[nH]c(Nc2nc(-c3ccccc3)c3cc(Cl)ccc3n2)nc1=O [12660 + TFA]
Measured attribute: IC50
Unit of measurement: µM
Experimental result: 41.5
--
Molecule: CCc1c(C)[nH]c(Nc2nc(C)c3cc(C)c(C)cc3n2)nc1=O [11809 + TFA]
Measured attribute: IC50
Unit of measurement: µM
Experimental result: 39.3
--
Molecule: CCc1ccc2nc(Nc3nc(C)c4c(n3)CCCC4)nc(C)c2c1
Measured attribute: IC50
Unit of measurement: µM
Experimental result: 39.1
--
Molecule: O=c1cc(C(F)(F)F)[nH]c(Nc2nc(-c3ccccc3)c3cc(Cl)ccc3n2)n1 [11759 + TFA]
Measured attribute: IC50
Unit of measurement: µM
Experimental result: 14.2
--
Molecule: Cc1ccc(SCc2cc(=O)[nH]c(Nc3nc(C)c4cccc(C)c4n3)n2)cc1 [11707 + TFA]
Measured attribute: IC50
Unit of measurement: µM
Experimental result: 15.7

I. CCCc1cc(=O)[nH]c(Nc2nc(C)c3ccc(OC)cc3n2)n1 [12669 + TFA]
II. COc1ccc2nc(Nc3nc(CSc4ccc(C)cc4)cc(=O)[nH]3)nc(C)c2c1
III. Cc1ccc2c(C)nc(Nc3nc(C(C)C)cc(=O)[nH]3)nc2c1
Let's sort these by IC50, smallest first. Go ahead? Please, when replying, give the labels in the order that was requested.
II, III, I

1. Cc1ccc2nc(Nc3nc(=O)c(C)c(C)[nH]3)nc(C)c2c1 [12629 + TFA]
2. Cc1ccc2c(C)nc(Nc3nc(C)c(CCC(C)C)c(=O)[nH]3)nc2c1 [11712 + TFA]
3. Cc1ccc2nc(Nc3nc(CSc4nnc(C)s4)cc(=O)[nH]3)nc(C)c2c1
List by increasing IC50. // respond by listing labels in the order requested
3, 1, 2
(3: 6.98 µM, 1: 12.7 µM, 2: 18.7 µM)

1. Cc1ccnc(Nc2nc(-c3ccccc3)c3cc(Cl)ccc3n2)n1
2. CCOc1cccc2c(C)nc(Nc3nc(C)c(C)c(=O)[nH]3)nc12 [12735 + TFA]
Which has the smaller recorded IC50, 1 or 2 ? Your choice should be expressed through its label.
1
(1: 10.8 µM, 2: 17.9 µM)

# credit: patent US20140179681A1
